target: human S1P1 receptor (Homo sapiens); construct: membranes were used; assay: GTP γ35S binding assay for S1P1 activity; conditions: membranes of cells stably expressing the S1P1 receptor, agonist potency
Sequence (P21453 whole entry): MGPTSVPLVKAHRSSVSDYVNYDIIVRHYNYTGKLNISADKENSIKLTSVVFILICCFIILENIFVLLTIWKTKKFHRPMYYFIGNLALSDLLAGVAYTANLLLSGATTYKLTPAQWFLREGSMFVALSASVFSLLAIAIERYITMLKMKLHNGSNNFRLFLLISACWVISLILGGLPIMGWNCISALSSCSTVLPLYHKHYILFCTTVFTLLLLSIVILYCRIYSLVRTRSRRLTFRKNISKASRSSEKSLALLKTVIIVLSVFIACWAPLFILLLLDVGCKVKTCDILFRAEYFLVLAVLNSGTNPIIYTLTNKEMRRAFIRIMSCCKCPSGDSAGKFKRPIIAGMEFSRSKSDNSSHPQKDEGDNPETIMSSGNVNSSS
READOUT_KIND: pEC50
Expect pEC50 as a plain number equal to -log10 of the molar concentration.

## Task Lab note: need pEC50 with human S1P1 receptor (Homo sapiens) for entry Cc1nn(C(=O)CCc2ccc(CNCCC(=O)O)cc2)c2c1C1C(C2)C1(C)C (stereo not shown) [Compound 1] , please look it up.
## Result 6.58
